Below, each of the compounds is paired with its reported Tumor growth inhibition vs vehicle control group value.
system: COLO 205 tumor xenograft; experiment: In vivo anti-tumor efficacy in COLO205 tumor xenograft model; conditions: 10 mg/kg QD by gavage x 18 days
The reply should contain only the number, in %.

Lookup result for Cn1cnc2c(F)c(Nc3ccc(Br)cc3Cl)c(C(=O)NOCCO)cc21 [Reference compound 1, reference compound] ; measured Tumor growth inhibition vs vehicle control group: 72.80

The compound listed as O=C(NOCCO)c1cc2scnc2c(F)c1Nc1ccc(Br)cc1Cl [Compound 11] has a reported Tumor growth inhibition vs vehicle control group of 82.14

So, O=C(NOCCO)c1cc2snnc2c(F)c1Nc1ccc(Br)cc1Cl [Compound 19] ? Its Tumor growth inhibition vs vehicle control group was 86.22

Continuing:
Value of Tumor growth inhibition vs vehicle control group reported for the compound O=C(NOCCO)c1cc2ocnc2c(F)c1Nc1ccc(I)cc1F [Compound 1] is 91.22
